List of melting point values.

QUERY: // returns reported melting point for input CN(C)CC1CCc2cc(OCc3ccc(NC(=O)Cc4ccccc4)cc3)ccc2C1 (stereo not given)
RESULT: 130 to 135 °C

----------
List of melting point values.

Cc1cccc2c(C(=O)O)cc(-c3ccccn3)nc12 ... 319 to 320 °C
Cc1cc2oc(C(N)=O)cc(=O)c2c(C)c1Cl ... > 300 °C
CC(=O)NC[C@@H]1C[C@H]1c1c(F)ccc2nn(C)cc12 (relative stereo) ... 120 °C
CCOC(=O)CCCOc1ccc(CC(C)(C)N)cc1 ... 103 to 105 °C

Would you kindly look at the next entry?
QUERY: // returns reported melting point for input O=C(CCCCC(=O)Oc1ccc(NC(=O)c2ccccc2)cc1)CC1CC(O)CC1=O (stereo not given)
RESULT: 143 to 146 °C
